Hey, just so you know, these numbers are from PubChem BioAssay (EPA / NIEHS).

read-out: Cellular tumor antigen p53 (Homo sapiens) (UniProt P04637); assay: LTEA_HepaRG_TP53: Life Technologies and Expression Analysis (LTEA) Assay for Tumor Protein P53 (TP53) using HepaRG (AID 2283537); conditions: mRNA level, 48 h; actives raise or lower the signal
Sequence (P04637 whole entry, looked up): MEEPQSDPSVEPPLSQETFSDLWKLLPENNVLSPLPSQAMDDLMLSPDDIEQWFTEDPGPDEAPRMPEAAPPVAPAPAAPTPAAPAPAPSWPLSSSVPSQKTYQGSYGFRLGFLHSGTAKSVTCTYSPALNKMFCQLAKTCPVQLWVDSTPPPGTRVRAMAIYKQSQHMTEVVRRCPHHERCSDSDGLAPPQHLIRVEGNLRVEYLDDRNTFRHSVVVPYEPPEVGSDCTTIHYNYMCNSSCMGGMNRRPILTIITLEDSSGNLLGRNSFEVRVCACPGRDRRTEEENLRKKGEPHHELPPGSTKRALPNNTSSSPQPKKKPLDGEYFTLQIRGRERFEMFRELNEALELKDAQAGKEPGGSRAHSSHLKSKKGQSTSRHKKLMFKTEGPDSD
Active and inactive are the calls of the source. Rule for the calls: active = hit-call score of the fitted dose curve at least 0.9, where 1 is the maximum; inactive = score below 0.9.
Hello, when you answer, please use one of the following outcomes: active, inactive

# count of solved cases: 6
[
  {
    "compound": "COc1cc(C=O)cc2c1[C@H](COC(N)=O)[C@]1(OC(C)=O)ON2C[C@H]2[C@@H]1N2C(C)=O",
    "group": "inactive"
  },
  {
    "compound": "N#CC(Br)(Br)C(N)=O",
    "group": "inactive"
  },
  {
    "compound": "CS(=O)(=O)NC(=O)c1cc(Oc2ccc(C(F)(F)F)cc2Cl)ccc1[N+](=O)[O-]",
    "group": "inactive"
  },
  {
    "compound": "CC(C)(OOC(C)(C)c1ccccc1)c1ccccc1",
    "group": "inactive"
  },
  {
    "compound": "Nc1ccc(Oc2ccc(N)cc2)cc1",
    "group": "inactive"
  },
  {
    "compound": "O=P(OCCCl)(OCCCl)OCCCl",
    "group": "inactive"
  }
]

Hello, I am checking results. What call was entered for O=[N+]([O-])c1ccc(Oc2ccc(Cl)cc2Cl)cc1 ?
inactive
